Data provenance: patent US7511065B2

compounds and their reported pIC50
Biological target: MLK-7 (Homo sapiens)
Construct: GST; His tag
Sequence (Q9NYL2 1-455 isoform Q9NYL2-2): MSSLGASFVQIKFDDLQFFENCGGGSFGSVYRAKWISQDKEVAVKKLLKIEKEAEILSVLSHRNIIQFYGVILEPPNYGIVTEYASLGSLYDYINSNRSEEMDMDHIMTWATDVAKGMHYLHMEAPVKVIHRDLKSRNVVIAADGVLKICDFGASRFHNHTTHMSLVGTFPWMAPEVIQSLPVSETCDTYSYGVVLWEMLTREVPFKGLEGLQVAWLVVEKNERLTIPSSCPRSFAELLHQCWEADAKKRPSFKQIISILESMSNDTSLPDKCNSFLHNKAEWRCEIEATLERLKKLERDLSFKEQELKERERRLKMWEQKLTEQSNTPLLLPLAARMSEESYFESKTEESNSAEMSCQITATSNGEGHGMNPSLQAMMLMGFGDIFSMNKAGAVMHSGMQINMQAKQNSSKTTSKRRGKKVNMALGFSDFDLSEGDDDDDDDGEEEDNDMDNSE
Test: In vitro assay of purified MLK-7 kinase activity (33P transfer from ATP to myelin basic protein)
Conditions: recombinant GST-tagged MLK-7 at 1 nm, 30 uM ATP, 5 uM MBP substrate, 2 hours room temperature; read-out: MLK7 IC50
pIC50: −log10 of the molar value. Counter-ions that a name gives are not always drawn.
reportedMetric: pIC50

compound	systemName	assayValue
Cc1csc(-c2ccc3c(-c4c(-c5ccccn5)nn5c4CCC5)ccnc3c2)c1	MLK-7 (Homo sapiens)	≥ 7.00
Nc1ccc(-c2ccc3c(-c4c(-c5ccccn5)nn5c4CCC5)ccnc3c2)cc1Cl	MLK-7 (Homo sapiens)	≥ 7.00
Cc1cc(-c2ccc3c(-c4c(-c5ccccn5)nn5c4CCC5)ccnc3c2)ccc1F	MLK-7 (Homo sapiens)	≥ 6.00
COC(=O)CCc1ccc(-c2ccc3c(-c4c(-c5ccccn5)nn5c4CCC5)ccnc3c2)cc1	MLK-7 (Homo sapiens)	≥ 7.00
c1ccc(-c2ccc3c(-c4c(-c5ccccn5)nn5c4CCC5)ccnc3c2)nc1	MLK-7 (Homo sapiens)	≥ 7.00
CSC[C@@H](NC(=O)c1ccc(-c2ccc3c(-c4c(-c5ccccn5)nn5c4CCC5)ccnc3c2)cc1)C(=O)O [Example 145, Trifluoroacetic Acid Salt]	MLK-7 (Homo sapiens)	≥ 7.00
CN(C)CCOc1ccc(-c2ccc3c(-c4c(-c5ccccn5)nn5c4CCC5)ccnc3c2)cc1	MLK-7 (Homo sapiens)	≥ 7.00
c1ccc(-c2nn3c(c2-c2ccnc4cc(-n5ccnc5)ccc24)CCC3)nc1	MLK-7 (Homo sapiens)	≥ 6.00
Cc1cccc(-c2nn3c(c2-c2ccnc4cc(-c5cccc([N+](=O)[O-])c5)ccc24)CCC3)n1	MLK-7 (Homo sapiens)	≥ 7.00
CS(=O)(=O)CCNC(=O)c1ccc(-c2ccc3c(-c4c(-c5ccccn5)nn5c4CCC5)ccnc3c2)cc1	MLK-7 (Homo sapiens)	≥ 7.00
FC(F)(F)COc1ccc(-c2ccc3c(-c4c(-c5ccccn5)nn5c4CCC5)ccnc3c2)cc1	MLK-7 (Homo sapiens)	≥ 7.00
O=C(O)c1ccccc1-c1ccc2c(-c3c(-c4ccccn4)nn4c3CCC4)ccnc2c1	MLK-7 (Homo sapiens)	≥ 5.00
Clc1ccc(-c2ccc3c(-c4c(-c5ccccn5)nn5c4CCC5)ccnc3c2)cc1	MLK-7 (Homo sapiens)	≥ 7.00
CN(C)/C=N/C(=O)c1ccc(-c2ccc3c(-c4c(-c5ccccn5)nn5c4CCC5)ccnc3c2)cc1	MLK-7 (Homo sapiens)	≥ 7.00
